Reference source: BindingDB's records for doi:10.1016/j.bmc.2009.05.079

- ASSAYED SYSTEM: UniProt:P61169
- Sequence (P61169 whole entry): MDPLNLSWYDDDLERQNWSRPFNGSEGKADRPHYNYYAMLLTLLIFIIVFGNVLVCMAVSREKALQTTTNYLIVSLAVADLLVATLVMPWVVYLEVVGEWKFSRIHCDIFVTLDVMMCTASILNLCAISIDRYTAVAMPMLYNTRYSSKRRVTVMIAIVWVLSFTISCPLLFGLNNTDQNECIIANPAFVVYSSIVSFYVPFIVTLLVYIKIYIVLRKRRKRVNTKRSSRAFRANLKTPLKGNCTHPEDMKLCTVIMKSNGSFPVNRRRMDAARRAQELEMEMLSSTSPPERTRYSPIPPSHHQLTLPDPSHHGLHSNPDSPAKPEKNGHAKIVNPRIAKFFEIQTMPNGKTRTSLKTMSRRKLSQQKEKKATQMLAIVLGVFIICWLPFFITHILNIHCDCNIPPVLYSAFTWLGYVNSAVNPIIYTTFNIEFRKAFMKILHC
- METHOD NOTES: Displacement of [3H]raclopride from dopamine D2 receptor in Wistar rat striatal membrane by liquid scintillation counting
ASSAY ENDPOINT: Ki
Don't forget the unit after the number, please.

Given CCCCC1NCCc2cc(Cl)c(O)cc21 (stereo unspecified) , state its recorded Ki.
76 nM
